Values from PubChem BioAssay (EPA / NIEHS)

Molecular target: Hypoxia-inducible factor 1-alpha (Homo sapiens) (UniProt Q16665)
Sequence (Q16665 whole entry, looked up): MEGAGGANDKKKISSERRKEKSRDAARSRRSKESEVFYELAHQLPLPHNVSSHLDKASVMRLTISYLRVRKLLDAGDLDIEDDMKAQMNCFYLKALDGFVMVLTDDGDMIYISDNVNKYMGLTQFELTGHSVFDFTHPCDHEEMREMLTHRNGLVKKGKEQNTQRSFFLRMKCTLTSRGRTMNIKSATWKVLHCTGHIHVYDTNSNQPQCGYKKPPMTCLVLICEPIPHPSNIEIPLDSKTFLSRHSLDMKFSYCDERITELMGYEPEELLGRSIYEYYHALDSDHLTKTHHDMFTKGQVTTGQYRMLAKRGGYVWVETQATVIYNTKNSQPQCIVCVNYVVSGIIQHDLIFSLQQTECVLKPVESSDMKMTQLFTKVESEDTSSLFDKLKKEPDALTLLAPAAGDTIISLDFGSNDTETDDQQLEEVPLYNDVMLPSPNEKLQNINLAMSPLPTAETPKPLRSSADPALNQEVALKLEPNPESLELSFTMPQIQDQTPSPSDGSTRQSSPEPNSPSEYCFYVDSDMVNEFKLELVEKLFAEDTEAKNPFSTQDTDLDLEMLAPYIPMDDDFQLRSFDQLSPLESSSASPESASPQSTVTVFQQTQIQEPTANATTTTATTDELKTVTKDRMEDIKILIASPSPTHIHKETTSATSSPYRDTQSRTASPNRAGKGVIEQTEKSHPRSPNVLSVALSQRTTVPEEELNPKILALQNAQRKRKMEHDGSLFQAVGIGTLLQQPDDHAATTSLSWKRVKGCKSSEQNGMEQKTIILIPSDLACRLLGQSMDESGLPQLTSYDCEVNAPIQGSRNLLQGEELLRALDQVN
Test: ATG_HIF1a_CIS: Attagene CIS-FACTORIAL HepG2 Assay for human Hypoxia Inducible Factor 1 (HIF1A) (AID 2282951)
Conditions: HepG2 Attagene cis-factorial HIF1a reporter transcription; actives raise or lower the signal
Calls of active or inactive are those of the source. How the source made its calls: active means hit-call score of the fitted dose curve at least 0.9, where 1 is the maximum; inactive means score below 0.9.
observationType: outcome

[[record]]
molecule = "CNC(=O)Oc1ccccc1OC(C)C"
endpointresult = "inactive"

[[record]]
molecule = "C[C@H]1[C@H](c2ccc(Cl)cc2)SC(=O)N1C(=O)NC1CCCCC1"
endpointresult = "inactive"

[[record]]
molecule = "CCC(C)(NC(=O)c1cc(Cl)c(C)c(Cl)c1)C(=O)CCl (configuration not stated)"
endpointresult = "inactive"

[[record]]
molecule = "O=C(Nc1ccccc1)Nc1cnns1"
endpointresult = "inactive"

[[record]]
molecule = "COP(=O)(OC)OC=C(Cl)Cl"
endpointresult = "inactive"


input: Provide one value: measured outcome of COC(=O)c1ccccc1S(=O)(=O)NC(=O)Nc1nc(C)nc(OC)n1
output: inactive

input: Provide one value: measured outcome of O=C(NC(=O)c1c(F)cccc1F)Nc1ccc(OC(F)(F)C(F)OC(F)(F)F)c(Cl)c1 (configuration not stated)
output: inactive

---

Assay: CCTE_Shafer_MEA_acute_firing_rate_mean: CCTE's Neural Acute Assay for Mean Firing Rate, Shafer Lab (AID 2284009);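 further: analyzed for loss of signal so actives lower firing rate relative to DMSO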
Active and inactive are the calls of the source. The calls were made as follows: active = hit-call score of the fitted dose curve at least 0.9, where 1 is the maximum; inactive = score below 0.9.
Select the matching outcome among TRUE for active, FALSE for inactive

[[record]]
compound = "C[C@H]1[C@H](c2ccc(Cl)cc2)SC(=O)N1C(=O)NC1CCCCC1"
group = "TRUE"

[[record]]
compound = "N#Cc1c(Cl)c(Cl)c(Cl)c(C#N)c1Cl"
group = "FALSE"

[[record]]
compound = "ClC1C(Cl)C(Cl)C(Cl)C(Cl)C1Cl (stereo not drawn)"
group = "TRUE"

[[record]]
compound = "Oc1ccc(Cl)cc1Cc1ccccc1"
group = "TRUE"

[[record]]
compound = "O=C1c2ccccc2C(=O)N1SC(Cl)(Cl)Cl"
group = "FALSE"

[[record]]
compound = "N#CN"
group = "FALSE"


input: Give the logged outcome of this assay for the following compound: O=S(=O)(O)C(F)(F)C(F)(F)C(F)(F)C(F)(F)C(F)(F)C(F)(F)C(F)(F)C(F)(F)F
output: FALSE

input: Give the logged outcome of this assay for the following compound: O=S1OCC2C(CO1)C1(Cl)C(Cl)=C(Cl)C2(Cl)C1(Cl)Cl (stereo not drawn)
output: FALSE

---

Read-out: ABC Transporter (ABCB1), ABCB1 (gene 5243)
Assay: CLD_ABCB1_24hr: CellzDirect (CLD) Gene Expression Assay for ABC Transporter (ABCB1) at 24 hours (AID 2283684);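 on AC50: potency for increase in ABCB1 mRNA relative to DMSO vehicle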
Results filed as inconclusive are left out. The source made the active and inactive calls. How the source made its calls: active means hit-call score of the fitted dose curve at least 0.9, where 1 is the maximum; inconclusive means response in the unintended direction; inactive means score below 0.9.
observationType: AC50

[[record]]
compound = "CNC(=O)Oc1cccc(N=CN(C)C)c1"
endpointresult = "inactive"

[[record]]
compound = "CN1CSC(=S)N(C)C1"
endpointresult = "inactive"

[[record]]
compound = "CCOC1Oc2ccc(OS(C)(=O)=O)cc2C1(C)C (configuration not stated)"
endpointresult = "inactive"

[[record]]
compound = "COc1nn(CSP(=S)(OC)OC)c(=O)s1"
endpointresult = "inactive"


input: Provide one value: measured AC50 of CC(C)(C)C(O)/C(=C\c1ccc(Cl)cc1Cl)n1cncn1 (configuration not stated)
output: 29.4 µM (active)

input: Provide one value: measured AC50 of O=C(O)C(F)(F)C(F)(F)C(F)(F)C(F)(F)C(F)(F)C(F)(F)C(F)(F)F
output: inactive

input: Provide one value: measured AC50 of COP(=S)(OC)Oc1ccc([N+](=O)[O-])cc1
output: inactive

---

Read-out: Insulin Like Growth Factor 1 (IGF1), IGF1 (gene 3479)
Assay: LTEA_HepaRG_IGF1: Life Technologies and Expression Analysis (LTEA) Assay for Insulin Like Growth Factor 1 (IGF1) using HepaRG (AID 2283506)
Details: mRNA level, 48 h; actives raise or lower the signal
Active and inactive are the calls of the source. The calls were made as follows: active = hit-call score of the fitted dose curve at least 0.9, where 1 is the maximum; inactive = score below 0.9.
Select the matching outcome among Yes for active, No for inactive

Answered examples (2):
[[record]]
linenotation = "O=C(Nc1ccccc1)Nc1cnns1"
group = "Yes"

[[record]]
linenotation = "O=C1c2ccccc2C(=O)N1SC(Cl)(Cl)Cl"
group = "No"


input: Give the logged outcome of this assay for the following molecule: CCN(CC)C(=O)SCc1ccc(Cl)cc1
output: No

input: Give the logged outcome of this assay for the following molecule: N#Cc1c(Cl)c(Cl)c(Cl)c(C#N)c1Cl
output: No

input: Give the logged outcome of this assay for the following molecule: CNC(=O)CSP(=S)(OC)OC
output: No

input: Give the logged outcome of this assay for the following molecule: CN1CSC(=S)N(C)C1
output: No

input: Give the logged outcome of this assay for the following molecule: CCCN(CCOc1c(Cl)cc(Cl)cc1Cl)C(=O)n1ccnc1
output: Yes

---

Assay: ATG_MRE_CIS: Attagene CIS-FACTORIAL HepG2 Assay for human Metal Responsive Element (MRE) (AID 2282954)
Settings: HepG2 MRE cis-reporter transcription, Attagene multiplex; actives raise or lower the signal
Activity calls are given as the source filed them. Rule for the calls: active = hit-call score of the fitted dose curve at least 0.9, where 1 is the maximum; inactive = score below 0.9.
Select the matching outcome among true (active), false (inactive)

input: Give the logged outcome of this assay for the following molecule: Cc1cc(C)nc(NC(=O)NS(=O)(=O)c2ccccc2C(=O)OC2COC2)n1
output: true

input: Give the logged outcome of this assay for the following molecule: O=[N+]([O-])/N=C1\NCCN1Cc1ccc(Cl)nc1
output: false

input: Give the logged outcome of this assay for the following molecule: COP(=S)(OC)Oc1ccc(SC)c(C)c1
output: false

input: Give the logged outcome of this assay for the following molecule: COc1nn(CSP(=S)(OC)OC)c(=O)s1
output: false

input: Give the logged outcome of this assay for the following molecule: COc1cc(OC)nc(NC(=O)NS(=O)(=O)c2cc(NC=O)ccc2C(=O)N(C)C)n1
output: false

input: Give the logged outcome of this assay for the following molecule: [2H]C1([2H])[n+]2ccccc2-c2cccc[n+]2C1([2H])[2H]
output: false

---

Biological target: Bile acid receptor (Homo sapiens) (UniProt Q96RI1)
Sequence (Q96RI1 whole entry, looked up): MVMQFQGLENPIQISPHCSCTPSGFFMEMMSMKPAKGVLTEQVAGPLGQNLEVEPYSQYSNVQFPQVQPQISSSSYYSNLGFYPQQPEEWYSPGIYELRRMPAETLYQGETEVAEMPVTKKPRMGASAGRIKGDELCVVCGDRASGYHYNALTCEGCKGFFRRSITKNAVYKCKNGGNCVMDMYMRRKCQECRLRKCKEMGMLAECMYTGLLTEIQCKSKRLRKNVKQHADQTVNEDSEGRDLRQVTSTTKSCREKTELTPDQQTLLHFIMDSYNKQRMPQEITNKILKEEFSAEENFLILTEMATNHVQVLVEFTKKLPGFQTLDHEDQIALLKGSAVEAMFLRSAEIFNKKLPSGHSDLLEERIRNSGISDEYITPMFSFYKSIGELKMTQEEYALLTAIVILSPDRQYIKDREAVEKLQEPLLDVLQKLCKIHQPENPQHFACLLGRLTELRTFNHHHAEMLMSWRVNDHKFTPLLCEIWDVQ
Test: OT_FXR_FXRSRC1_0480: Odyssey Thera (OT) 8-hour HEK293T Protein-Complementation Assay for Farnesoid X receptor/SRC-1 Co-activator (AID 2283383)
Inconclusive results are not listed. Calls of active or inactive are those of the source. Rule for the calls: active = hit-call score of the fitted dose curve at least 0.9, where 1 is the maximum; inconclusive = response in the unintended direction; inactive = score below 0.9.
Select the matching outcome among yes (1) for active, no (0) for inactive

[[record]]
linenotation = "CC(C)N(C(=O)COc1nnc(C(F)(F)F)s1)c1ccc(F)cc1"
group = "no (0)"

[[record]]
linenotation = "Cc1[nH]c(=O)n(C(C)(C)C)c(=O)c1Cl"
group = "no (0)"


input: Give the logged outcome of this assay for the following compound: COc1nn(CSP(=S)(OC)OC)c(=O)s1
output: no (0)

input: Give the logged outcome of this assay for the following compound: O=[N+]([O-])/N=C1\NCCN1Cc1ccc(Cl)nc1
output: no (0)

input: Give the logged outcome of this assay for the following compound: CC(C)OC(=O)Nc1cccc(Cl)c1
output: yes (1)

---

Assay: CCTE_Shafer_MEA_acute_burst_percentage_std: CCTE's Neural Acute Assay for Standard Deviation of Burst Percentage, Shafer Lab (AID 2284018);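 further: fitted in the negative direction so actives lower burst percentage SD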
Active and inactive are the calls of the source. The calls were made as follows: active = hit-call score of the fitted dose curve at least 0.9, where 1 is the maximum; inactive = score below 0.9.
Select the matching outcome among active, inactive

Answered examples (8):
[[record]]
compound = "CC[C@H](C)[C@H]1O[C@]2(C=C[C@@H]1C)C[C@@H]1C[C@@H](C/C=C(\\C)[C@@H](O[C@H]3C[C@H](OC)[C@@H](O[C@H]4C[C@H](OC)[C@@H](O)[C@H](C)O4)[C@H](C)O3)[C@@H](C)/C=C/C=C3\\CO[C@@H]4[C@H](O)C(C)=C[C@@H](C(=O)O1)[C@]34O)O2 (tested in a mixture with another compound)"
group = "active"

[[record]]
compound = "O=S(=O)(O)C(F)(F)C(F)(F)C(F)(F)C(F)(F)C(F)(F)C(F)(F)C(F)(F)C(F)(F)F"
group = "inactive"

[[record]]
compound = "N#Cc1c(Cl)c(Cl)c(Cl)c(C#N)c1Cl"
group = "inactive"

[[record]]
compound = "CCC(C)(C)C(=O)OC1=C(c2ccc(Cl)cc2Cl)C(=O)OC12CCCCC2"
group = "inactive"

[[record]]
compound = "N#CN"
group = "inactive"

[[record]]
compound = "Clc1ccccc1-c1nnc(-c2ccccc2Cl)nn1"
group = "inactive"

[[record]]
compound = "CCCN(CCC)c1c([N+](=O)[O-])cc(C(F)(F)F)cc1[N+](=O)[O-]"
group = "active"

[[record]]
compound = "ClC1C(Cl)C(Cl)C(Cl)C(Cl)C1Cl (stereo unspecified)"
group = "inactive"


input: Give the logged outcome of this assay for the following compound: O=C1c2ccccc2C(=O)N1SC(Cl)(Cl)Cl
output: inactive

input: Give the logged outcome of this assay for the following compound: O=[N+]([O-])/N=C1\NCCN1Cc1ccc(Cl)nc1
output: inactive

input: Give the logged outcome of this assay for the following compound: CC(C)OC(=O)Nc1cccc(Cl)c1
output: inactive
